Reported pKd is given for each of the following binders.
Target: T1, human DLL3-His (human, UniProt Q9NYJ7 27-492)
T1 construct: also called hDLL3
T1 sequence: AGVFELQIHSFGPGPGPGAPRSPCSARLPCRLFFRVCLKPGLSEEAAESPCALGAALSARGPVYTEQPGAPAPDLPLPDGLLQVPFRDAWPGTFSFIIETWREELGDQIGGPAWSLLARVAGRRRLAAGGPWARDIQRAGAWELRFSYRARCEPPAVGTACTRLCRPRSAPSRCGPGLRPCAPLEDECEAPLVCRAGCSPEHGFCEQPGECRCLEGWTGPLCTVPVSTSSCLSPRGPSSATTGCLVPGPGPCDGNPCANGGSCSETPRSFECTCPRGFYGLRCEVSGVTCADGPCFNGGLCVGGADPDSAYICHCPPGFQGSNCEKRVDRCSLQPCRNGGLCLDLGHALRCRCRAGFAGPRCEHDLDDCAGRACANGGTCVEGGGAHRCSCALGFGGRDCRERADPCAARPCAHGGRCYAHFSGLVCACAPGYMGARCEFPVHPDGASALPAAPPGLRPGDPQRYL
Test: SPR (Biacore 8K), 37 C, antibody captured on anti-human Fc, DLL3-His 0.411-300 nM injected, 1:1 fit
Here pKd is given on a logarithmic scale as minus log10 of the concentration in mol/L.

{"Binder": "humanized anti-DLL3 antibody h5E7-YD-B5 (antibody, V domains shown, Expressed as IgG1 mAb: human IgG1 CH1-CH2-CH3 and human constant kappa; also called B5 variant) VH: QVQLVQSGAEVKKPGASVKVSCKASGFNIKDDYIHWVRQAPGQGLEWMGWIDSENGDTEYASKFQGRVTITADTSANTAYMELSSLRSEDTAVYYCATSTYWSYDLFVYWGQGTLVTVSS VL: DVQMTQSPSSLSASVGDRVTITCKSSQSLLHSNGKTYLNWLQQKPGQAPKLLLYLVSKLESGVPSRFSGSGSGTDYTLTISSLQPEDFATYYCLQTTHLYTFGQGTKLEIK", "pKd": 9.57}

Now for the binder whose pKd we want.
Which pKd value is on record for humanized anti-DLL3 antibody h5E7 (antibody, V domains shown, Expressed as IgG1 mAb: human IgG1 CH1-CH2-CH3 and human constant kappa) VH: QVQLVQSGAEVKKPGASVKVSCKASGFNIKDDYIHWVRQAPGQGLEWMGWIDSENGDTEYASKFQGRVTITADTSANTAYMELSSLRSEDTAVYYCATSSYYSYDLFVYWGQGTLVTVSS VL: DVQMTQSPSSLSASVGDRVTITCKSSQSLLHSNGKTYLNWLQQKPGQAPKLLLYLVSKLESGVPSRFSGSGSGTDYTLTISSLQPEDFATYYCLQTTHLYTFGQGTKLEIK ?
8.06

src = patent US20210221894A1
